# Assay target: CYP2D6 (Homo sapiens, UniProt P10635)
# Sequence (P10635 whole entry): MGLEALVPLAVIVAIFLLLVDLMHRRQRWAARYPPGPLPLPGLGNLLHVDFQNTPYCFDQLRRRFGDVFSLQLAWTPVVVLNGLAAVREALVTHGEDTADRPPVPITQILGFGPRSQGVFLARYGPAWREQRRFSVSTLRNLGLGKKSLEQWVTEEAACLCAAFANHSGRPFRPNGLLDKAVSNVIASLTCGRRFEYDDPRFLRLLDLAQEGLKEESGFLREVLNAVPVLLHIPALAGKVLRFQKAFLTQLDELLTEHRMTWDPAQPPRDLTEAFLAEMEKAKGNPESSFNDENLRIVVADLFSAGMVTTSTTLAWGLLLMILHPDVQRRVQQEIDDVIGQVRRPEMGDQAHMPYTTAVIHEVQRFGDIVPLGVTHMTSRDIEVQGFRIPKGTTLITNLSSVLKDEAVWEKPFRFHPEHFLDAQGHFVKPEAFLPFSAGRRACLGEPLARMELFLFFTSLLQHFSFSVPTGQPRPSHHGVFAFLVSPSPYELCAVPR
# Assay summary: Inhibition of cytochrome P450 2D6 activity was measured by the inhibition of HAMC production at the concentration of 10 uM
# Format: ADME

Compound structure string	Assay target	Result units	inhibition at 10 µM
CN(C(=O)Cc1ccc(CNS(C)(=O)=O)cc1)[C@H](CN1CC[C@H](O)C1)c1ccccc1	CYP2D6 (Homo sapiens, UniProt P10635)	%	25
CC(C)S(=O)(=O)NCc1ccc(CC(=O)N(C)[C@H](CN2CC[C@H](O)C2)c2ccccc2)cc1	CYP2D6 (Homo sapiens, UniProt P10635)	%	27
CCS(=O)(=O)NCc1ccc(CC(=O)N(C)[C@H](CN2CC[C@H](O)C2)c2ccccc2)cc1	CYP2D6 (Homo sapiens, UniProt P10635)	%	31
CCCS(=O)(=O)NCc1ccc(CC(=O)N(C)[C@H](CN2CC[C@H](O)C2)c2ccccc2)cc1	CYP2D6 (Homo sapiens, UniProt P10635)	%	27
CN(C(=O)Cc1ccc(CCNS(C)(=O)=O)cc1)[C@H](CN1CC[C@H](O)C1)c1ccccc1	CYP2D6 (Homo sapiens, UniProt P10635)	%	48
CN(C(=O)Cc1ccc(CNS(C)(=O)=O)cc1)[C@H](CN1CCCC1)c1ccccc1	CYP2D6 (Homo sapiens, UniProt P10635)	%	45
CN(C(=O)Cc1ccc(CCCNS(C)(=O)=O)cc1)[C@H](CN1CC[C@H](O)C1)c1ccccc1	CYP2D6 (Homo sapiens, UniProt P10635)	%	46

* * *

# Assay target: Delta-type opioid receptor (Homo sapiens, UniProt P41143)
# Sequence (P41143 whole entry): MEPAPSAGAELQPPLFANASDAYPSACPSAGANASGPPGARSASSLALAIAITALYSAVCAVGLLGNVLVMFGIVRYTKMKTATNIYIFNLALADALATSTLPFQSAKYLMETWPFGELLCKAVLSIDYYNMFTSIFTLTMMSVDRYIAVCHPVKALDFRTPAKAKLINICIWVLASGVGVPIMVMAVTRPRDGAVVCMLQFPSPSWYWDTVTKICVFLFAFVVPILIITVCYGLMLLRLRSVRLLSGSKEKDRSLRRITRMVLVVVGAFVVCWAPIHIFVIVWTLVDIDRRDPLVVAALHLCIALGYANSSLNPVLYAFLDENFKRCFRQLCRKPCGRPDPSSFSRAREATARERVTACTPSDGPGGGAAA
# Assay summary: Percent inhibition against human Opioid receptor delta 1 using [3H]diprenorphine as radio ligand
# Experimental context: concentration not given here
Test readout: inhibition (%)

Compound structure string	Assay target	Value reported
CN(C(=O)Cc1cccc(CN)c1)[C@H](CN1CCCC1)c1ccccc1	Delta-type opioid receptor (Homo sapiens, UniProt P41143)	1.4
CN(C(=O)Cc1ccc(CN)cc1)[C@H](CN1CCCC1)c1ccccc1	Delta-type opioid receptor (Homo sapiens, UniProt P41143)	17
CC(=O)NCc1ccc(CC(=O)N(C)[C@H](CN2CCCC2)c2ccccc2)cc1	Delta-type opioid receptor (Homo sapiens, UniProt P41143)	0
CC(=O)NCc1cccc(CC(=O)N(C)[C@H](CN2CCCC2)c2ccccc2)c1	Delta-type opioid receptor (Homo sapiens, UniProt P41143)	15
